Listing of recorded Rat. Pred. Cl. by entry.
- conditionSummary: rat liver microsomes 0.5 mg/mL, 1 uM compound, NADPH
Express your answer in L/H/kg, writing the number without its unit.

{"columns": ["molecule", "unitsSymbol", "value"],
 "data": [
  ["COC(=O)N[C@H](C(=O)N[C@@H](Cc1ccc(C#Cc2ccc(N3C[C@@H]4C[C@H]3CN4C3COC3)nc2)cc1)[C@@H](O)CN(Cc1c(F)cc(-c2ccn(C(F)F)n2)cc1F)NC(=O)[C@@H](NC(=O)OC)C(C)(C)C(F)(F)F)C(C)(C)C(F)(F)F [Example 174]", "L/H/kg", 0.69],
  ["COC(=O)N[C@H](C(=O)N[C@@H](Cc1ccc(C#Cc2ccc(N3CCN(C4COC4)CC3)nc2)cc1)[C@@H](O)CN(Cc1c(F)cc(-c2cc(F)ccn2)cc1F)NC(=O)[C@@H](NC(=O)OC)C(C)(C)C(F)(F)F)C(C)(C)C(F)(F)F [Example 98]", "L/H/kg", 0.65]
]}

# evaluate next
Exercise: Entry COC(=O)N[C@H](C(=O)N[C@@H](Cc1ccc(C#Cc2ccc(N3C[C@@H]4CN(C5COC5)C[C@@H]4C3)nc2)cc1)[C@@H](O)CN(Cc1c(F)cc(-c2ccn(C(F)F)n2)cc1F)NC(=O)[C@@H](NC(=O)OC)C(C)(C)C(F)(F)F)C(C)(C)C(F)(F)F [Example 165] has what Rat. Pred. Cl.?
Solution: 3.2

---

We begin with a simple list: items and their reported RAT PO F.
- runDescription: in vivo
- conditionSummary: male, SD, rat, in vivo, po, 2.5 mg/kg
Form entry: value (%) — number only.

Use the examples below as a reference point.
{"columns": ["smilesNotation", "value"],
 "data": [
  ["COC(=O)N[C@H](C(=O)N[C@@H](Cc1ccc(C#Cc2ccc(N3CC4CCC(C3)N4C3COC3)nc2)cc1)[C@@H](O)CN(Cc1ccc(-c2cnn(C(F)F)c2)cc1)NC(=O)[C@@H](NC(=O)OC)C(C)(C)C(F)(F)F)C(C)(C)C(F)(F)F", 19],
  ["COC(=O)N[C@H](C(=O)N[C@@H](Cc1ccc(C#Cc2cnc(N3CC4CCC(C3)N4C3COC3)nc2)cc1)[C@@H](O)CN(Cc1c(F)cc(-c2ccn(CC(F)F)n2)cc1F)NC(=O)[C@@H](NC(=O)OC)C(C)(C)C(F)(F)F)C(C)(C)C(F)(F)F", 16.4],
  ["COC(=O)N[C@H](C(=O)N[C@@H](Cc1ccc(C#Cc2cnc(N3CC4CCC(C3)N4C3COC3)nc2)cc1)[C@@H](O)CN(Cc1c(F)cc(-c2ncccn2)cc1F)NC(=O)[C@@H](NC(=O)OC)C(C)(C)C(F)(F)F)C(C)(C)C(F)(F)F", 44.2],
  ["COC(=O)N[C@H](C(=O)N[C@@H](Cc1ccc(C#Cc2ccc(N3CC4CCC(C3)N4C3COC3)nc2)cc1)[C@@H](O)CN(Cc1c(F)cc(-c2ccccn2)cc1F)NC(=O)[C@@H](NC(=O)OC)C(C)(C)C(F)(F)F)C(C)(C)C(F)(F)F", 55.7],
  ["COC(=O)N[C@H](C(=O)N[C@@H](Cc1ccc(C#Cc2ccc(N3CC4CCC(C3)N4C3COC3)nc2)cc1)[C@@H](O)CN(Cc1c(F)cc(-c2ncccn2)cc1F)NC(=O)[C@@H](NC(=O)OC)C(C)(C)C(F)(F)F)C(C)(C)C(F)(F)F", 38.4]
]}

Exercise: Item COC(=O)N[C@H](C(=O)N[C@@H](Cc1ccc(C#Cc2ccc(N3CC4CCC(C3)N4C3COC3)nc2)cc1)[C@@H](O)CN(Cc1c(F)cc(-c2ccn(C(F)F)n2)cc1F)NC(=O)[C@@H](NC(=O)OC)C(C)(C)C(F)(F)F)C(C)(C)C(F)(F)F has what recorded RAT PO F?
Solution: 37.2

Exercise: I am curious: what RAT PO F value has been reported for COC(=O)N[C@H](C(=O)N[C@@H](Cc1ccc(C#Cc2ccc(N3CC4CCC(C3)N4C3COC3)nc2)cc1)[C@@H](O)CN(Cc1c(F)cc(-c2cc(F)ccn2)cc1F)NC(=O)[C@@H](NC(=O)OC)C(C)(C)C(F)(F)F)C(C)(C)C(F)(F)F ?
Solution: 26.3

Exercise: I am curious: what RAT PO F value has been reported for COC(=O)N[C@H](C(=O)N[C@@H](Cc1ccc(C#Cc2ccc(N3CC4CCC(C3)N4C3COC3)nc2)cc1)[C@@H](O)CN(Cc1c(F)cc(-c2cc3n(n2)CCOC3)cc1F)NC(=O)[C@@H](NC(=O)OC)C(C)(C)C(F)(F)F)C(C)(C)C(F)(F)F ?
Solution: 23.2

Exercise: Need RAT PO F of COC(=O)N[C@H](C(=O)N[C@@H](Cc1ccc(C#Cc2ccc(N3CC4CCC(C3)N4C3COC3)nc2)cc1)[C@@H](O)CN(Cc1c(F)cc(-c2ccccn2)cc1Cl)NC(=O)[C@@H](NC(=O)OC)C(C)(C)C(F)(F)F)C(C)(C)C(F)(F)F , thanks.
Solution: 35.8

Exercise: Need RAT PO F, item COC(=O)N[C@H](C(=O)N[C@@H](Cc1ccc(C#Cc2ccc(N3CC4CCC(C3)N4C3COC3)nc2)cc1)[C@@H](O)CN(Cc1c(F)cc(-c2cnn(C(F)F)c2)cc1F)NC(=O)[C@@H](NC(=O)OC)C(C)(C)C(F)(F)F)C(C)(C)C(F)(F)F
Solution: 24.6

Exercise: Item COC(=O)N[C@H](C(=O)N[C@@H](Cc1ccc(C#Cc2ccc(N3CC4CCC(C3)N4C3COC3)nc2)cc1)[C@@H](O)CN(Cc1ccc(-c2ccccn2)cc1)NC(=O)[C@@H](NC(=O)OC)C(C)(C)C(F)(F)F)C(C)(C)C(F)(F)F has what recorded RAT PO F?
Solution: 34.1

Exercise: Given the entry COC(=O)N[C@H](C(=O)N[C@@H](Cc1ccc(C#Cc2ccc(N3CC4CCC(C3)N4C3COC3)nc2)cc1)[C@@H](O)CN(Cc1c(F)cc(-c2ccn(C3CC3)n2)cc1F)NC(=O)[C@@H](NC(=O)OC)C(C)(C)C(F)(F)F)C(C)(C)C(F)(F)F , report its measured RAT PO F.
Solution: 36.6

Exercise: Quick check: RAT PO F of COC(=O)N[C@H](C(=O)N[C@@H](Cc1ccc(-c2cnc(N3CC4CCC(C3)N4C3COC3)nc2)cc1)[C@@H](O)CN(Cc1c(F)cc(-c2ccn(C(F)F)n2)cc1F)NC(=O)[C@@H](NC(=O)OC)C(C)(C)C(F)(F)F)C(C)(C)C(F)(F)F ?
Solution: 14.7

Exercise: Look at this molecule and give its reported RAT PO F. COC(=O)N[C@H](C(=O)N[C@@H](Cc1ccc(C#Cc2ccc(N3CC4CCC(C3)N4C3COC3)nc2)cc1)[C@@H](O)CN(Cc1c(F)cc(-c2cn(C(F)F)cn2)cc1F)NC(=O)[C@@H](NC(=O)OC)C(C)(C)C(F)(F)F)C(C)(C)C(F)(F)F
Solution: 13.1

Exercise: Please report the recorded RAT PO F for COC(=O)N[C@H](C(=O)NN(Cc1c(F)cc(-c2ccn(C(F)F)n2)cc1F)C[C@H](O)[C@H](Cc1ccc(C#Cc2cnc(N3CC4CCC(C3)N4C3COC3)nc2)cc1)NC(=O)[C@@H](NC(=O)C1CC1)C(C)(C)C(F)(F)F)C(C)(C)C(F)(F)F .
Solution: 19.9
